// data source = the domain aggregation screens of Martell et al. (2025)

# ASSAY_NOTES: soluble fraction after stress (log2 fold change); higher = more stays soluble; pooled small domains, quantitative proteomics;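 note: 20 min heating vs room temperature control held 20 min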
# ASSAY_CONDITIONS: stress: 75 degC
MEASUREMENT_LABEL: soluble fraction (log2)

Query: Would you mind telling me what soluble fraction (log2) value was observed for HMTEPKILTAEESQRLDLILVQQWPELGRRALRELVQQGGVRINGELALKAGQYVQAGERVEVAVP ?
Result: 0.232

Query: Now give it for HMKFDVNAAIRAVLNVTVDKGATLERIMKETNLTSDQLVLPIALLMKTERLHFKRSGTHEVYVSVGKAPDK too.
Result: -3.79

Query: Now give it for HMADLPQATALADVKGDVQMQGIQFGYDPEKIIIHDLNLHARPGSLVAIVGPTGAGKTTIINLLMRFYD too.
Result: -1.75

Query: Now give it for HMGPSLIRIASNPVAEVFIDGTRVGTTPFEMPADGTLKTVRLTAKDHDDLVVPLRSMKSMEIMLTLRRI too.
Result: -2.54

Query: Now give it for HMVAQEVPYSTFVMRLDRNEVDAVKIIDGNEIEGTFKSPNGDLVQFKTLIPYQDTELMPLLKQKGVRISGS too.
Result: 0.427

Query: Now give it for HMEDGEVTVPDLRGLTIKEAGTILEKLGLHLSPVGTGLAVRQDVAPGSKVARDTTITVEFEPPDIQVLR too.
Result: 0.374

Query: Now give it for HMDDGALQIRLGPQALQQRLDKLGYSLNKEDLDLVYQYFLHSADSKGAVYDQELRELMGEAGVE too.
Result: -0.102

Query: Now give it for HMGSFDDAPDQLRQSILQLLAEGPLPPSAITERLNISREDATEALQQLLDEQRIFAVNGMLQLQPG too.
Result: -0.109

Query: Now give it for HMPLITLSAEIQSEQIGQRLDQTLAELFPEYSRSRLKTWIEADLVKLNNQIVNIPREKVLGGEHVEITVDI too.
Result: -1.09

Query: Now give it for HMTGDNQTIGGGGFHHVAIRAHDFDASVKFYGETLGFREKIAWGEGDKRAIMMDTGDGNYIEIF too.
Result: 0.0318

Query: Now give it for HMPTMTDIPIKIIRSRRRTLAIEVREGGEVIVRAPLYSRKAEIDAFVKAHENWIITKYNLMITKQN too.
Result: -3.51

Query: Now give it for HMEQISDEDTLRKMVNEVLDNNQTQLEQYKSGKTNLIGFFVGQTLKKSAGKANPSIVNKLVNEEIYI too.
Result: 0.141

Query: Now give it for HMNKAYLTVADMKKDKSLKNGDVVRTLGYYGYNDGDGAVYQIKDSHPEDYHIRLDNGLDAEQINY too.
Result: 0.185

Query: Now give it for HMRTLRENIMDYFKQQTIIQKSSVILLPMSKRQLADYFGVQRPSLFRELKKLKEEGIIEINNRTITIK too.
Result: -1.8

Query: Now give it for HMGQVGIPFSDFLAEVENGQVREVVIKGNDISGTFNDNRGFSTYAPNDPNLVEKLTKRGVVINAQPTE too.
Result: 0.077

Query: Now give it for HMGSATAPDLKGLTYEQAQTKAEDAGYNIEKGEDVYDNDVEKGKVASQDPEAGAEAKEGSVITVNISK too.
Result: -0.0215

Query: Now give it for HMGEPTLTIRVVSYNPQSGEMVVVARDPLSGRYALATLNVRTGAGQMIGPQGELLPIENFALGS too.
Result: -1.65

Query: Now give it for HMTKNEFLASFQNELQKRHIPDWEDVVSEYEQHFALKQADGFSEEEIAAKLGAPAELAAQFEA too.
Result: 0.155

Query: Now give it for HMKREWKDDDPTVPAGWKVAWTTTSDNRAKIAFMSPDKKIFHSRKSALQHMLAAGTYAQSDIEKMTKGL too.
Result: -0.315

Query: Now give it for HMPSALGDKIRAARKALKLSLEDLAEKVSSSKSYMWELENRDEPNPGADLLMRIAAALNVTTEHLLGP too.
Result: -0.28

Query: Now give it for HMDRMINYSPIVAKVPQDDYTTKVYNIPIYSELTVVDKISEPEPLIAPIYRFKYITPEDEEIEFDIPV too.
Result: -0.00941

Query: Now give it for HMGRFPSLTPVVIDALTAQYREHPGWTVQLHVDNLRVVLAANQTPLPSYPTIRRYLLAQGMRRQTRP too.
Result: -0.396

Query: Now give it for HMGEDSEPVQVPDVTGQPLWEARRTLSSMGLKVLDDGGSGSVTAQMPSAGATLRNGGQMMLYTYDEALPE too.
Result: 0.126

Query: Now give it for HMRTLKDSTEYLIRSMLLRGEMKVGEIYSANALAKELNISNSPVREAMMSLVDRGLLENVRNRGFRVV too.
Result: -1.83

Query: Now give it for HMSLSASELDQLRMMTKVSHMYHTRGMVQIDIARSLGLSQARVSRLLSAAEDANIVRTVVVA too.
Result: -0.392

Query: Now give it for HMSSDLLGVRVRRARARAGLTRRRLSLLSGVSERFLAQLESGQGNISIVLIRRVAAALGAELVELIGS too.
Result: -0.555

Query: Now give it for HMRKDWTPGAFVEAFVNDTPATRSTILAKAVSAGLSRWAADNLLRTADNDGLMVRQGSGKRNEPFTYRRGP too.
Result: -0.257

Query: Now give it for HMISENFVEAKILLTEDNRPKSLEILKDIIRQHDKVYSPLSLFLILDEDLEENKEIILEYFDLVLS too.
Result: -0.327

Query: Now give it for HMNPYLWQRVRLLFSNVGVINNSATVDLVFSAPKGVLTEDLANNFSAALVKKGKEELGLDDIKITISVIPN too.
Result: -3.67

Query: Now give it for HMGSLGSLLKSVRNQRGLSRQQMAQSLNIGVRAIEQIEEGERKPDLELLNRYARGLMDPSVT too.
Result: -0.166

Query: Now give it for HMKRKAIDQSWQPDKEAIEILSKAGVNEEFIKEEIPEFILYWSEKGEESDTWNSKFIAQVRRQWAKTQH too.
Result: -0.121

Query: Now give it for HMGSGVNVTVNGKRMNLPLKDDHIIFVDIFNYIDFDLSKPKGSIVLKLNGRDAGYTDPIKDGDVIDIYWQ too.
Result: -0.301

Query: Now give it for HMADEIMYPVQVNGKVRAEIFVAADQSKNKELVLEMAKSEERVQKYLEEGNLIKEIFVPGRIVNLVI too.
Result: 0.162
